For each record, write down the corresponding GI50.
Reply numerically in nM, unit not repeated.

Prompt: Give GI50 only, for "C[C@@H]1O[C@@H](n2c3ccccc3c3c4c(c5c6ccccc6[nH]c5c32)C(=O)NC4=O)C[C@H](O)[C@H]1O" , using MDA-MB-231 (breast) data.
Response: 14100

Prompt: Give GI50 only, for C[C@@H]1O[C@@H](n2c3ccccc3c3c4c(c5c6ccccc6[nH]c5c32)CNC4=O)[C@H](O)[C@H](O)[C@H]1O [formula (XII), N^13-1′-β-L-rhamnosyl-k252c] , using MDA-MB-231 (breast) data.
Response: 1970

Prompt: Give GI50 only, for "C[C@]12O[C@H]([C@H](O)[C@H](O)[C@H]1O)n1c3ccccc3c3c4c(c5c6ccccc6n2c5c31)C(=O)NC4=O" , using MDA-MB-231 (breast) data.
Response: 1350

Prompt: Give GI50 only, for C[C@]12O[C@H](C[C@H](O)[C@H]1O)n1c3ccccc3c3c4c(c5c6ccccc6n2c5c31)CNC4=O [formula (XVII), N^12-5′(S)-N^13-1′-(R)-L-olivosyl-k252c] , using MDA-MB-231 (breast) data.
Response: 1050

Prompt: Give GI50 only, for "C[C@]12O[C@H](C[C@H](O)[C@H]1O)n1c3ccccc3c3c4c(c5c6ccccc6n2c5c31)C(=O)NC4=O" , using MDA-MB-231 (breast) data.
Response: 7500

Prompt: Give GI50 only, for CN[C@@H]1C[C@H]2O[C@@](C)([C@@H]1OC)n1c3ccccc3c3c4c(c5c6ccccc6n2c5c31)C(=O)NC4 [STP, staurosporine, reference compound] , using MDA-MB-231 (breast) data.
Response: 13

Prompt: Give GI50 only, for "C[C@]12O[C@H](C[C@@H](O)[C@H]1O)n1c3ccccc3c3c4c(c5c6ccccc6n2c5c31)C(=O)NC4=O" , using MDA-MB-231 (breast) data.
Response: 8160

Prompt: Give GI50 only, for "C[C@@H]1O[C@@H](n2c3ccccc3c3c4c(c5c6ccccc6[nH]c5c32)C(=O)NC4=O)C[C@@H](O)[C@H]1O" , using MDA-MB-231 (breast) data.
Response: 4190

Prompt: Give GI50 only, for "C[C@H]1O[C@@H](n2c3ccccc3c3c4c(c5c6ccccc6[nH]c5c32)C(=O)NC4=O)C[C@@H](O)[C@@H]1O" , using MDA-MB-231 (breast) data.
Response: 2430

Prompt: Give GI50 only, for C[C@@H]1O[C@@H](n2c3ccccc3c3c4c(c5c6ccccc6[nH]c5c32)CNC4=O)C[C@H](O)[C@H]1O [formula (XIII), N^13-1′-β-L-olivosyl-k252c] , using MDA-MB-231 (breast) data.
Response: 1430

Prompt: Give GI50 only, for C[C@H]1O[C@@H](n2c3ccccc3c3c4c(c5c6ccccc6[nH]c5c32)CNC4=O)C[C@@H](O)[C@@H]1O [formula (XV), N^13-1′-β-D-olivosyl-k252c] , using MDA-MB-231 (breast) data.
Response: 3170

Prompt: Give GI50 only, for C[C@@H]1O[C@@H](n2c3ccccc3c3c4c(c5c6ccccc6[nH]c5c32)CNC4=O)C[C@@H](O)[C@H]1O [formula (XIV), N^13-1′-β-L-digitoxosyl-k252c] , using MDA-MB-231 (breast) data.
Response: 2490

All values here come from patent US8598132B2.
